- Experimental Protocol: qHTS assay for small molecule agonists of the p53 signaling pathway - cell viability (AID 651633);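 also: p53RE-bla HCT reporter cells with a stable beta-lactamase p53 reporter; % is scaled to controls: 0 for no effect and ±100 for the full control effect; nearly all actives have a fitted effect of over 30% in size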
- Conditions Used: p53RE-bla HCT-116 viability, ATP luminescence, 16 h; series mostly up to 83.3 µM
Results filed as inconclusive are left out. Calls of active or inactive are those of the source. Calls follow the shape of the full dose curve.
Readout Label: outcome

As a guide, the following entries are already answered.
O=C(O)Cc1ccc(-c2ccccc2)cc1; inactive
C=CC(C)=CCC=C(C)C; inactive
CCCOC(=O)c1ccc(C(=O)OCCC)nc1; inactive
CCCCCCCCCCOS(=O)(=O)O; inactive
O=[N+]([O-])c1cccc(S(=O)(=O)NCCNS(=O)(=O)c2cccc([N+](=O)[O-])c2)c1; inactive
CC(=O)CC(c1ccc([N+](=O)[O-])cc1)c1c(O)c2ccccc2oc1=O (configuration not stated); inactive
CCCCN(CCCC)C(=S)SSC(=S)N(CCCC)CCCC; inactive
OCCSc1ccccc1; inactive
CC1=CC(O)CC(C)(C)C1 (configuration not stated); inactive
CC(C)(CCl)c1ccccc1; inactive

Lab note: measured outcome of "Oc1cc(O)c(Cl)cc1Cl" was inactive

The reported outcome of the compound Cc1ccccc1N1C(=O)c2cc(S(N)(=O)=O)c(Cl)cc2NC1C (configuration not stated) was inactive

* * *

- Experimental Protocol: qHTS RealTime-Glo MT Cell Viability Assay in HEK293 cells - 40 hour (AID 1224874); also: % is scaled to controls: 0 for no effect and ±100 for the full control effect; nearly all actives have a fitted effect of over 50% in size
- Conditions Used: RealTime-Glo luminescence; active compounds read low
Inconclusive results are not listed.
Readout Label: max response (%)
Answer format: numeric, % implied, no suffix.

Check out these entries, answers already filled in.
Cc1ccc(S)cc1; 4.48
COC(OC)(C(=O)c1ccccc1)c1ccccc1; 1.09
C=CC(=O)NCOCC(C)C; -14
CC1(C)C(=O)N(Br)C(=O)N1Cl; 8.13
CCOC(=O)c1ccccc1C; -14.1
O=C1NCCN1; 4.04
O=C(O)c1ccc(CO)o1; -0.778
CCCCCCCC/C=C\CCCCCCCC(=O)OC(CO)CO; 0.119

Next item in the queue.
Data point: COCC(O)CO (centres undefined) ; max response = -5.25

* * *

- Experimental Protocol: qHTS assay for identifying genotoxic compounds that show differential cytotoxicity against isogenic chicken DT40 cell lines with known DNA damage response pathways - wild type cell line (AID 743012); also: nearly all actives have a fitted effect of over 60% in size
- Conditions Used: DT40 wild type chicken cells viability, CellTiter-Glo, 40 h; series mostly up to 68.4 µM
Results filed as inconclusive are left out. Activity calls are given as the source filed them. Calls follow the shape of the dose curve; as a rule, active = well fitted cell-killing curve with a large enough effect in the repeat runs; inconclusive = weak or mixed curves, or effect the other way; inactive = no such curve, though single readings can be large or run the other way.
Choose one outcome from this list and give only that: TRUE (active), FALSE (inactive)

Before answering, review these 4 worked examples.
CC1=CC(O)CC(C)(C)C1 (stereo not drawn); FALSE
CCCc1c(OCCCOc2ccc(OCC(=O)O)cc2)ccc(C(C)=O)c1O; FALSE
O=C(CCC1CCN(Cc2ccccc2)CC1)c1ccc2c(c1)NCCCC2; TRUE
Cc1ccc(Nc2nccc(N(C)c3ccc4c(C)n(C)nc4c3)n2)cc1S(N)(=O)=O; TRUE

Write down the call the test reported for this molecule. Item: "c1cnc2c(n1)CCCC2"
FALSE

What classification did "CC1(C)C2=CCCC(C)(C)[C@]23CC[C@H]1C3" end up with in this test?
TRUE

Short answer needed: outcome of this test for "Brc1cc(-c2ccc(Br)c(Br)c2Br)cc(Br)c1Br" ?
FALSE

How did this test come out for "Cc1oc(C)c(C(=O)Nc2ccccc2)c1C" ?
TRUE

Each molecule tested received a call. Report the one for "COc1cc2c(N3CCN(C(=O)Nc4ccc(OC(C)C)cc4)CC3)ncnc2cc1OCCCN1CCCCC1" .
TRUE
